- Tested on: UDH-2 (environmental isolate, S. saprophyticus)
- PROTOCOL_DETAILS: MIC by broth microdilution
- Assay type: cell-based
- CONDITION_NOTES: Staphylococcus saprophyticus
READOUT_KIND: MIC (µg/mL)

Answered cases to consult:
[[record]]
compound = "COC(=O)CC1COc2c(cc3c4c2CCCN4CCC3)-c2c(NC(C)(C)C)n3c(-c4ccc(OC)cc4)c(-c4ccc(OC)cc4)sc3[n+]21 (stereo not drawn)"
unit_info = "µg/mL"
meas_value = 6.25

[[record]]
compound = "COC(=O)CC1COc2c(cc3c4c2CCCN4CCC3)-c2c(NC(C)(C)C)n3c4ccc(Br)cc4sc3[n+]21 (stereo not drawn)"
unit_info = "µg/mL"
meas_value = 25


a: COC(=O)CC1COc2c(cc3c4c2CCCN4CCC3)-c2c(NC(C)(C)C)n3c(-c4cccc5c4OCCO5)csc3[n+]21 (stereo not drawn)
b: COC(=O)CC1COc2c(cc3c4c2CCCN4CCC3)-c2c(NC(C)(C)C)n3c(-c4cc(OC)ccc4OC)csc3[n+]21 (stereo not drawn)
c: NCC[C@H](O)C(=O)N[C@@H]1C[C@H](N)[C@@H](O[C@H]2O[C@H](CN)[C@@H](O)[C@H](O)[C@H]2O)[C@H](O)[C@H]1O[C@H]1O[C@H](CO)[C@@H](O)[C@H](N)[C@H]1O [Amikacin, amikacin, reference compound]
Number of compounds to sort: 3. Sort criterion: MIC, ascending. # respond with the labels, arranged in the requested order
c, b, a

These entries and their values trace back to patent US10526343B2.
